Measured values drawn from the Immune Epitope Database (IEDB) for this set.

- System name: HLA-A*69:01
- Assay summary: IEDB peptide-MHC binding, purified MHC/competitive/fluorescence; filed as Kd, often an IC50 or EC50 that approximates it; bounds were set here for any values at or beyond the usual limits of such assays
- Condition: source organism: Yersinia pestis Nepal516
pKd: −log10 of the molar value.
Readout: pKd

YADGGQWYN = ≤ 4.70

Query sequence follows.
// field: pKd; key: ILHRLAPWI ; value = ≤ 4.70

###

- System name: HLA-B*46:01
- Assay summary: IEDB peptide-MHC binding, purified MHC/competitive/fluorescence; filed as Kd, often an IC50 or EC50 that approximates it; bounds were set here for any values at or beyond the usual limits of such assays
- Condition: source organism: Vibrio cholerae 2740-80
Readout: pKd
Kindly note that pKd refers to -log10 of the concentration in mol/L and answer with the value alone.

// field: pKd; key: MMFDAMGAL ; value = 7.64

###

- System name: HLA-B*07:02
- Assay summary: IEDB peptide-MHC binding, purified MHC/direct/fluorescence; filed as Kd, often an IC50 or EC50 that approximates it; bounds were set here for any values at or beyond the usual limits of such assays
- Condition: source organism: Influenza A virus (A/tiger/Thailand/CU-T4/04(H5N1))
pKd: −log10 of the molar value.
Readout: pKd

// field: pKd; key: TMLYNKMEF ; value = ≤ 4.70

###

- System name: HLA-B*08:01
- Assay summary: IEDB peptide-MHC binding, purified MHC/direct/fluorescence; filed as Kd, often an IC50 or EC50 that approximates it; bounds were set here for any values at or beyond the usual limits of such assays
- Condition: source organism: Variola virus
pKd: −log10 of the molar value.
Readout: pKd

// field: pKd; key: YHRPLTGYM ; value = ≤ 4.70

###

- System name: HLA-B*15:01
- Assay summary: IEDB peptide-MHC binding, purified MHC/direct/fluorescence; filed as Kd, often an IC50 or EC50 that approximates it; bounds were set here for any values at or beyond the usual limits of such assays
- Condition: source organism: Coxiella burnetii
pKd: −log10 of the molar value.
Measured pKd, listed per entry.

YYYNFSEDL = ≤ 4.70

// returns pKd for WAPEGDIRL with HLA-B*15:01; value = ≤ 4.70

###

- System name: HLA-A*69:01
- Assay summary: IEDB peptide-MHC binding, purified MHC/competitive/fluorescence; filed as Kd, often an IC50 or EC50 that approximates it; bounds were set here for any values at or beyond the usual limits of such assays
- Condition: source organism: Mycobacterium tuberculosis H37Ra
Readout: Kd

// returns Kd for AVYLLDGLR with HLA-A*69:01; value = ≥ 20 µM

###

- System name: HLA-A*30:02
- Assay summary: IEDB peptide-MHC binding, purified MHC/competitive/radioactivity; filed as Kd, often an IC50 or EC50 that approximates it; bounds were set here for any values at or beyond the usual limits of such assays
- Condition: source organism: Mammarenavirus juninense
Readout: pKd
Kindly note that pKd refers to -log10 of the concentration in mol/L and answer with the value alone.

// field: pKd; key: LCLSGDGWPY ; value = 5.84

###

- System name: HLA-A*29:02
- Assay summary: IEDB peptide-MHC binding, purified MHC/competitive/fluorescence; filed as Kd, often an IC50 or EC50 that approximates it; bounds were set here for any values at or beyond the usual limits of such assays
- Condition: source organism: Vibrio vulnificus CMCP6
Readout: Kd

// field: Kd; key: KQIVIINPM ; value = ≥ 5 µM
